Tested on: HIV strain K103N
PROTOCOL TEXT: Cellular anti-HIV assay in MT4 LTR-EGFP cells, mutant K103N
Format: cell-based, HIV-1
EXPERIMENTAL PARAMETERS: Human immunodeficiency virus 1, read-out: K103N pEC50 (converted)
Criterion: EC50 strictly under 4 nM. Met: true. Not met: false.

[[record]]
compound = "Cc1cc(/C=C/C#N)cc(C)c1Nc1nc(Nc2ccc(C#N)cc2)ncc1C(=O)N1CCN(C)CC1 [Compound 6]"
target_or_system = "HIV strain K103N"
cat = "false"

[[record]]
compound = "Cc1cc(/C=C/C#N)cc(C)c1Nc1nc(Nc2ccc(C#N)cc2)ncc1C(=O)NCC1COC(C)(C)O1 (stereo not drawn) [Compound 10]"
target_or_system = "HIV strain K103N"
cat = "true"

[[record]]
compound = "Cc1cc(/C=C/C#N)cc(C)c1Nc1nc(Nc2ccc(C#N)cc2)ncc1C(=O)NCCN1CCCC1 [Compound 51]"
target_or_system = "HIV strain K103N"
cat = "false"

[[record]]
compound = "Cc1cc(/C=C/C#N)cc(C)c1Nc1nc(Nc2ccc(C#N)cc2)ncc1C(=O)NCC#N [Compound 21]"
target_or_system = "HIV strain K103N"
cat = "false"

[[record]]
compound = "Cc1cc(/C=C/C#N)cc(C)c1Nc1nc(Nc2ccc(C#N)cc2)ncc1C(=O)NCc1cccs1 [Compound 20]"
target_or_system = "HIV strain K103N"
cat = "false"

[[record]]
compound = "Cc1cc(/C=C/C#N)cc(C)c1Nc1nc(Nc2ccc(C#N)cc2)ncc1C(=O)NCc1cccc(Cl)c1 [Compound 25]"
target_or_system = "HIV strain K103N"
cat = "false"

[[record]]
compound = "Cc1cc(/C=C/C#N)cc(C)c1Nc1nc(Nc2ccc(C#N)cc2)ncc1C(=O)NCC1CCCO1 (stereo not drawn) [Compound 12]"
target_or_system = "HIV strain K103N"
cat = "true"

[[record]]
compound = "COCCNC(=O)c1cnc(Nc2ccc(C#N)cc2)nc1Oc1c(C)cc(/C=C/C#N)cc1C [Compound 60]"
target_or_system = "HIV strain K103N"
cat = "false"

[[record]]
compound = "COc1ccccc1CNC(=O)c1cnc(Nc2ccc(C#N)cc2)nc1Nc1c(C)cc(/C=C/C#N)cc1C [Compound 27]"
target_or_system = "HIV strain K103N"
cat = "false"

[[record]]
compound = "Cc1cc(/C=C/C#N)cc(C)c1Nc1nc(Nc2ccc(C#N)cc2)ncc1C(=O)N(C)c1ccccc1 [Compound 5]"
target_or_system = "HIV strain K103N"
cat = "false"

[[record]]
compound = "Cc1cc(/C=C/C#N)cc(C)c1Nc1nc(Nc2ccc(C#N)cc2)ncc1C(=O)NCCCN1CCCC1 [Compound 38]"
target_or_system = "HIV strain K103N"
cat = "true"

[[record]]
compound = "Cc1cc(/C=C/C#N)cc(C)c1Nc1nc(Nc2ccc(C#N)cc2)ncc1C(=O)NCCc1ccccn1 [Compound 44]"
target_or_system = "HIV strain K103N"
cat = "true"

[[record]]
compound = "Cc1cc(/C=C/C#N)cc(C)c1Nc1nc(Nc2ccc(C#N)cc2)ncc1C(=O)NC1CC1 [Compound 37]"
target_or_system = "HIV strain K103N"
cat = "true"

[[record]]
compound = "Cc1cc(/C=C/C#N)cc(C)c1Nc1nc(Nc2ccc(C#N)cc2)ncc1C(=O)Nc1ccccn1 [Compound 3]"
target_or_system = "HIV strain K103N"
cat = "true"

[[record]]
compound = "Cc1cc(/C=C/C#N)cc(C)c1Nc1nc(Nc2ccc(C#N)cc2)ncc1C(=O)N1CCCCC1 [Compound 2]"
target_or_system = "HIV strain K103N"
cat = "false"

[[record]]
compound = "Cc1cc(/C=C/C#N)cc(C)c1Nc1nc(Nc2ccc(C#N)cc2)ncc1C(=O)NCCO [Compound 53]"
target_or_system = "HIV strain K103N"
cat = "false"

[[record]]
compound = "Cc1cc(/C=C/C#N)cc(C)c1Nc1nc(Nc2ccc(C#N)cc2)ncc1C(=O)NCc1ccc(Br)cc1 [Compound 36]"
target_or_system = "HIV strain K103N"
cat = "false"

[[record]]
compound = "Cc1cc(/C=C/C#N)cc(C)c1Nc1nc(Nc2ccc(C#N)cc2)ncc1C(=O)N(C)CCO [Compound 7]"
target_or_system = "HIV strain K103N"
cat = "true"

[[record]]
compound = "Cc1cc(/C=C/C#N)cc(C)c1Nc1nc(Nc2ccc(C#N)cc2)ncc1C(=O)NCCCO [Compound 49]"
target_or_system = "HIV strain K103N"
cat = "false"

[[record]]
compound = "Cc1cc(/C=C/C#N)cc(C)c1Nc1nc(Nc2ccc(C#N)cc2)ncc1C(=O)NCCc1ccccc1 [Compound 31]"
target_or_system = "HIV strain K103N"
cat = "false"

[[record]]
compound = "Cc1cc(/C=C/C#N)cc(C)c1Nc1nc(Nc2ccc(C#N)cc2)ncc1C(=O)NCCc1ccc(S(N)(=O)=O)cc1 [Compound 47]"
target_or_system = "HIV strain K103N"
cat = "false"

[[record]]
compound = "Cc1cc(/C=C/C#N)cc(C)c1Nc1nc(Nc2ccc(C#N)cc2)ncc1C(=O)NCCN(C)C [Compound 22]"
target_or_system = "HIV strain K103N"
cat = "true"

[[record]]
compound = "Cc1cccc(CNC(=O)c2cnc(Nc3ccc(C#N)cc3)nc2Nc2c(C)cc(/C=C/C#N)cc2C)c1 [Compound 28]"
target_or_system = "HIV strain K103N"
cat = "false"

[[record]]
compound = "Cc1cc(/C=C/C#N)cc(C)c1Oc1nc(Nc2ccc(C#N)cc2)ncc1C(=O)NCC1CCCO1 (stereo not drawn) [Compound 59]"
target_or_system = "HIV strain K103N"
cat = "false"

[[record]]
compound = "CCOC(=O)CCCNC(=O)c1cnc(Nc2ccc(C#N)cc2)nc1Nc1c(C)cc(/C=C/C#N)cc1C [Compound 45]"
target_or_system = "HIV strain K103N"
cat = "true"


Provenance of the data: patent US8933089B2
